# Test system: Klebsiella pneumoniae
# MEASUREMENT_DESCRIPTION: Antibacterial activity against KPC-2 producing multidrug-resistant Klebsiella pneumoniae clinical isolate 15-3 assessed as inhibition of bacterial growth incubated for 18 to 20 hrs by two fold serial dilution assay
# Assay type: functional
# MEASUREMENT_SETUP: time 18-20 hrs
OBSERVATION_TYPE: MIC

// worked examples, MIC included
Nc1nc(/C(=N/OC(C(=O)O)C2CCCC2)C(=O)N[C@@H]2C(=O)N3C(C(=O)O)=C(CSCCNC(=O)c4ccc(O)c(O)c4Cl)CS[C@H]23)cs1.O=C(O)C(F)(F)F (stereo partly specified): 4 µg/mL
CC(C)(C)C1CCC(C(O/N=C(\C(=O)N[C@@H]2C(=O)N3C(C(=O)O)=C(CSCCNC(=O)c4ccc(O)c(O)c4Cl)CS[C@H]23)c2csc(N)n2)C(=O)O)CC1.O=C(O)C(F)(F)F (stereo partly specified): 2 µg/mL

Which measured MIC value corresponds to Nc1nc(/C(=N/OC(C(=O)O)C2CCC(F)(F)CC2)C(=O)N[C@@H]2C(=O)N3C(C(=O)O)=C(CSCCNC(=O)c4ccc(O)c(O)c4Cl)CS[C@H]23)ns1.O=C(O)C(F)(F)F (stereo partly specified) ? 16 µg/mL

# query: MIC of entry CC(C)(O/N=C(\C(=O)N[C@@H]1C(=O)N2C(C(=O)O)=C(CS[C@H]3CC[C@@H](NC(=O)c4ccc(O)c(O)c4Cl)CC3)CS[C@H]12)c1csc(N)n1)C(=O)O.O=C(O)C(F)(F)F 4 µg/mL

Need MIC of Nc1nc(/C(=N/OC2(C(=O)O)CCC2)C(=O)N[C@@H]2C(=O)N3C(C(=O)O)=C(CSCCNC(=O)c4ccc(O)c(O)c4Cl)CS[C@H]23)cs1.O=C(O)C(F)(F)F , thanks. 8 µg/mL

Please report the recorded MIC for Nc1nc(/C(=N/OC(C(=O)O)C2CCC(F)(F)CC2)C(=O)N[C@@H]2C(=O)N3C(C(=O)O)=C(CSCCNC(=O)c4ccc(O)c(O)c4Cl)CS[C@H]23)cs1.O=C(O)C(F)(F)F (stereo partly specified) . 1 µg/mL

Fill in: MIC of CC(C)(O/N=C(\C(=O)N[C@@H]1C(=O)N2C(C(=O)O)=C(CS[C@@H]3C[C@H]4CC[C@@H](C3)N4C(=O)c3ccc(O)c(O)c3Cl)CS[C@H]12)c1csc(N)n1)C(=O)O.O=C(O)C(F)(F)F is ___ 64 µg/mL

// returns reported MIC for input Nc1nc(/C(=N/OC(C(=O)O)C2CCOCC2)C(=O)N[C@@H]2C(=O)N3C(C(=O)O)=C(CSCCNC(=O)c4ccc(O)c(O)c4Cl)CS[C@H]23)cs1.O=C(O)C(F)(F)F (stereo partly specified) 8 µg/mL

Report MIC for CC(C)(O/N=C(\C(=O)N[C@@H]1C(=O)N2C(C(=O)[O-])=C(C[N+]3(CCNC(=O)c4ccc(O)c(O)c4Cl)CCCC3)CS[C@H]12)c1csc(N)n1)C(=O)O [CEFIDEROCOL] please. 8 µg/mL

Tell me the measured MIC of CC(C)C(O/N=C(\C(=O)N[C@@H]1C(=O)N2C(C(=O)O)=C(CSCCNC(=O)c3ccc(O)c(O)c3Cl)CS[C@H]12)c1csc(N)n1)C(=O)O.O=C(O)C(F)(F)F (stereo partly specified) , please. 0.5 µg/mL

If you can, please state the reported MIC value of CC(C)(O/N=C(\C(=O)N[C@@H]1C(=O)N2C(C(=O)O)=C(CSCCCNC(=O)c3ccc(O)c(O)c3Cl)CS[C@H]12)c1csc(N)n1)C(=O)O.O=C(O)C(F)(F)F . 8 µg/mL

Consider the compound C[C@@H](O)[C@H]1C(=O)N2C(C(=O)O)=C(S[C@@H]3CN[C@H](C(=O)N(C)C)C3)[C@H](C)[C@H]12 [MEROPENEM] and give its measured MIC. > 64 µg/mL

I would be grateful if you could share the reported MIC for Nc1nc(/C(=N/OC(C(=O)O)C2CCC(C(F)(F)F)CC2)C(=O)N[C@@H]2C(=O)N3C(C(=O)O)=C(CSCCNC(=O)c4ccc(O)c(O)c4Cl)CS[C@H]23)cs1.O=C(O)C(F)(F)F (stereo partly specified) . 1 µg/mL

Please give the measured MIC for this compound: CC(C)C(O/N=C(\C(=O)N[C@@H]1C(=O)N2C(C(=O)O)=C(CS[C@H]3CC[C@@H](NC(=O)c4ccc(O)c(O)c4Cl)CC3)CS[C@H]12)c1csc(N)n1)C(=O)O.O=C(O)C(F)(F)F (stereo partly specified) 4 µg/mL

Report MIC for Nc1nc(/C(=N/O[C@@H](C(=O)O)C2CCC(F)(F)CC2)C(=O)N[C@@H]2C(=O)N3C(C(=O)O)=C(CSCCNC(=O)c4ccc(O)c(O)c4Cl)CS[C@H]23)cs1.O=C(O)C(F)(F)F please. 1 µg/mL

* * *

Each entry below lists one item and its recorded MIC value.
# Test system: Klebsiella pneumoniae
# MEASUREMENT_DESCRIPTION: Antibacterial activity against KPC-2 producing multidrug-resistant Klebsiella pneumoniae clinical isolate 15-3 assessed as inhibition of bacterial growth incubated for 18 to 20 hrs by two fold serial dilution assay
# Type: functional
# MEASUREMENT_SETUP: time 18-20 hrs
Quote the value and follow it with the unit of measurement.

Example entries and their recorded answers appear below.
Nc1nc(/C(=N/O[C@H](C(=O)O)C2CCC(F)(F)CC2)C(=O)N[C@@H]2C(=O)N3C(C(=O)O)=C(CSCCNC(=O)c4ccc(O)c(O)c4Cl)CS[C@H]23)cs1.O=C(O)C(F)(F)F: 0.25 µg/mL
Nc1nc(/C(=N/OC(C(=O)O)C2CCC(F)(F)CC2)C(=O)N[C@@H]2C(=O)N3C(C(=O)O)=C(CSCCNC(=O)c4ccc(O)c(O)c4Cl)CS[C@H]23)c(Br)s1.O=C(O)C(F)(F)F (stereo not given in full): 0.5 µg/mL
Nc1nc(/C(=N/OC(C(=O)O)C2CCCCC2)C(=O)N[C@@H]2C(=O)N3C(C(=O)O)=C(CSCCNC(=O)c4ccc(O)c(O)c4Cl)CS[C@H]23)cs1.O=C(O)C(F)(F)F (stereo not given in full): 2 µg/mL
CC(C)(C)C(O/N=C(\C(=O)N[C@@H]1C(=O)N2C(C(=O)O)=C(CS[C@H]3CC[C@@H](NC(=O)c4ccc(O)c(O)c4Cl)CC3)CS[C@H]12)c1csc(N)n1)C(=O)O.O=C(O)C(F)(F)F (stereo not given in full): 32 µg/mL

Pending compound:
Field request: MIC | item: Cc1sc(N)nc1/C(=N/OC(C(=O)O)C1CCC(F)(F)CC1)C(=O)N[C@@H]1C(=O)N2C(C(=O)O)=C(CSCCNC(=O)c3ccc(O)c(O)c3Cl)CS[C@H]12.O=C(O)C(F)(F)F (stereo not given in full) 8 µg/mL

* * *

# Tested on: Escherichia coli
# MEASUREMENT_DESCRIPTION: Antibacterial activity against ESBL-producing multidrug-resistant Escherichia coli clinical isolate 14-2 assessed as inhibition of bacterial growth incubated for 18 to 20 hrs by two fold serial dilution assay
# Assay type: functional
# MEASUREMENT_SETUP: time 18-20 hrs
Simple rule here: MIC less than 2 µg/mL is 1, otherwise 0.

Answered examples (5):
Nc1nc(/C(=N/OC(C(=O)O)C2CCC(C(F)(F)F)CC2)C(=O)N[C@@H]2C(=O)N3C(C(=O)O)=C(CSCCNC(=O)c4ccc(O)c(O)c4Cl)CS[C@H]23)cs1.O=C(O)C(F)(F)F (some centres not stated): 1
Nc1nc(/C(=N/OC(C(=O)O)C2CCCCC2)C(=O)N[C@@H]2C(=O)N3C(C(=O)O)=C(CSCCNC(=O)c4ccc(O)c(O)c4Cl)CS[C@H]23)cs1.O=C(O)C(F)(F)F (some centres not stated): 1
Nc1nc(/C(=N/OC(C(=O)O)C2CCOCC2)C(=O)N[C@@H]2C(=O)N3C(C(=O)O)=C(CSCCNC(=O)c4ccc(O)c(O)c4Cl)CS[C@H]23)cs1.O=C(O)C(F)(F)F (some centres not stated): 0
Nc1nc(/C(=N/OC(C(=O)O)C2CC2)C(=O)N[C@@H]2C(=O)N3C(C(=O)O)=C(CSCCNC(=O)c4ccc(O)c(O)c4Cl)CS[C@H]23)cs1.O=C(O)C(F)(F)F (some centres not stated): 0
Nc1nc(/C(=N/OC(C(=O)O)C2CCC2)C(=O)N[C@@H]2C(=O)N3C(C(=O)O)=C(CSCCNC(=O)c4ccc(O)c(O)c4Cl)CS[C@H]23)cs1.O=C(O)C(F)(F)F (some centres not stated): 0

Could you please tell me whether MIC recorded for Nc1nc(/C(=N/OC(C(=O)O)C2CCC(F)(F)CC2)C(=O)N[C@@H]2C(=O)N3C(C(=O)O)=C(CSCCNC(=O)c4ccc(O)c(O)c4Cl)CS[C@H]23)cs1.O=C(O)C(F)(F)F (some centres not stated) is less than 2 µg/mL? 1

Source listed as ChEMBL document CHEMBL5543142.
